System: NCI-H524 (Small Cell Lung Carcinoma)
Test: combination Emax (second highest fraction inhibited in the dose matrix, 72 h); higher = more inhibition; extreme values may be limits of the assay
Below: a set of entries, each annotated with reported combination Emax.
Field format: numeric only.

- molecule: "CN(CCO)CC[C@H](CSc1ccccc1)Nc1ccc(S(=O)(=O)NC(=O)c2ccc(N3CCC([C@@H](O)c4ccccc4-c4ccc(Cl)cc4)CC3)cc2)cc1S(=O)(=O)C(F)(F)F [AZD4320] + C[C@@H]1COCCN1C2=NC(=NC(=C2)C3(CC3)[S@](=N)(=O)C)C4=C5C=CNC5=NC=C4 [AZD6738] (first compound max 1 µM, 7x7, partner max 10 µM)"
  value kind: "combination Emax"
  reported: 0.939
- molecule: "NC1(C(=O)N[C@@H](CCO)c2ccc(Cl)cc2)CCN(c2ncnc3[nH]ccc23)CC1 [Capivasertib] + CC(C)n1c(=O)n(C)c2cnc3cc(F)c(-c4ccc(OCCCN5CCCCC5)nc4)cc3c21 [AZD1390] (first compound max 10 µM, 7x7, partner max 0.3 µM)"
  value kind: "combination Emax"
  reported: 0.343

// next item, combination Emax requested
# get_value(readout='combination Emax', item= Cc1c2c(nn1C)CSCc1cc(n(C)n1)CSc1cc(c3ccccc3c1)OCCCc1c(C(=O)O)n(C)c3c-2c(Cl)ccc13 [AZD5991] + CN(C)CCCOc1ccc(-c2ccc3ncc4c(c3c2)n(C2CCOCC2)c(=O)n4C)cn1 [AZD0156] (first compound max 1 µM, 7x7, partner max 1 µM) )
0.452
